- test_system: BCRP (Homo sapiens, UniProt Q9UNQ0)
- assay_details: bidirectional transport assay across hCMEC/D3 cell monolayer with or without Ko143
- test_parameters: human, pH 7.4, Efflux ratio (ER), hCMEC/D3 without inhibitor Ko143, 60 μM; hCMEC/D3 monolayer
reported_property: efflux ratio at 2 h, 60 µM

> print(dat)
                                   compound                          test.system           reported.property  reported.result
1  CC1(C)O[C@@H]2[C@@H](CO[C@@]3(COS(N)(=O)=O)OC(C)(C)O[C@@H]23)O1 [TPM, topiramate]  BCRP (Homo sapiens, UniProt Q9UNQ0)  efflux ratio at 2 h, 60 µM             1.17

###

- test_system: BCRP (Homo sapiens)
- assay_details: bidirectional transport assay across hCMEC/D3 cell monolayer with or without Ko143
- test_parameters: hCMEC/D3 monolayer; ER ≥ 1.5 and significantly reduced by Ko143
reported_property: transport by BCRP (conclusion of bidirectional transport assay)

> print(dat)
                                   compound  reported.result
1                           CCCC(CCC)C(=O)O       transports
2  CC1(C)O[C@@H]2[C@@H](CO[C@@]3(COS(N)(=O)=O)OC(C)(C)O[C@@H]23)O1 [TPM, topiramate]              not
3  NC(=O)N1c2ccccc2C=Cc2ccccc21 [CBZ, carbamazepine]              not
4       O=C1CC(=O)N(c2ccccc2)c2cc(Cl)ccc2N1       transports
5  NC(=O)N1c2ccccc2CC(=O)c2ccccc21 [OXC, oxcarbazepine]       transports
6         O=C1NC(=O)C(c2ccccc2)(c2ccccc2)N1              not
7                 CC[C@@H](C(N)=O)N1CCCC1=O              not

###

- test_system: BCRP (Homo sapiens)
- assay_details: bidirectional transport assay across hCMEC/D3 cell monolayer with or without Ko143
- test_parameters: human, pH 7.4, Efflux ratio (ER) without inhibitor, at all the tested concentrations; hCMEC/D3 monolayer
Below, each entry is listed with its recorded efflux ratio at 2 h.
reported_property: efflux ratio at 2 h

> print(dat)
                                   compound          test.system  reported.result
1  CC1(C)O[C@@H]2[C@@H](CO[C@@]3(COS(N)(=O)=O)OC(C)(C)O[C@@H]23)O1 [TPM, topiramate]  BCRP (Homo sapiens)            < 1.5
2      CCCC(CCC)C(=O)O [VPA, valproic acid]  BCRP (Homo sapiens)            > 1.5
3  NC(=O)N1c2ccccc2C=Cc2ccccc21 [CBZ, carbamazepine]  BCRP (Homo sapiens)            < 1.5
4  CC[C@@H](C(N)=O)N1CCCC1=O [LEVI, levetiracetam]  BCRP (Homo sapiens)            < 1.5

###

- test_system: BCRP (Homo sapiens, UniProt Q9UNQ0)
- assay_details: bidirectional transport assay across hCMEC/D3 cell monolayer with or without Ko143
- test_parameters: human, pH 7.4, with Ko143 1 μM
reported_property: Papp A→B at 2 h, 600 μM (×10⁻⁶ cm/s)

> print(dat)
   compound.structure.string        reported.property  units.of.measure  reported.result
1            CCCC(CCC)C(=O)O  Papp A→B at 2 h, 600 μM        ×10⁻⁶ cm/s             0.33

###

- test_system: BCRP (Homo sapiens, UniProt Q9UNQ0)
- assay_details: bidirectional transport assay across hCMEC/D3 cell monolayer with or without Ko143
- test_parameters: human, pH 7.4
reported_property: Papp A→B at 2 h, 25 µM (×10⁻⁶ cm/s)

> print(dat)
                                   molecule       reported.property  reported.result
1  NC(=O)N1c2ccccc2CC(=O)c2ccccc21 [OXC, oxcarbazepine]  Papp A→B at 2 h, 25 µM             2.64

###

- test_system: BCRP (Homo sapiens, UniProt Q9UNQ0)
- assay_details: bidirectional transport assay across hCMEC/D3 cell monolayer with or without Ko143
- test_parameters: human, pH 7.4, Efflux ratio (ER), hCMEC/D3 without inhibitor Ko143, 600 μM; hCMEC/D3 monolayer
reported_property: efflux ratio at 2 h, 600 μM

> print(dat)
   compound.structure.string  reported.result
1            CCCC(CCC)C(=O)O            > 1.5

###

- test_system: BCRP (Homo sapiens, UniProt Q9UNQ0)
- assay_details: bidirectional transport assay across hCMEC/D3 cell monolayer with or without Ko143
- test_parameters: human, pH 7.4
reported_property: Papp A→B at 2 h, 21 μM (×10⁻⁶ cm/s)

> print(dat)
                                   compound                          test.system  reported.result
1  NC(=O)N1c2ccccc2C=Cc2ccccc21 [CBZ, carbamazepine]  BCRP (Homo sapiens, UniProt Q9UNQ0)             3.37

###

- test_system: BCRP (Homo sapiens, UniProt Q9UNQ0)
- Sequence (Q9UNQ0 1-655): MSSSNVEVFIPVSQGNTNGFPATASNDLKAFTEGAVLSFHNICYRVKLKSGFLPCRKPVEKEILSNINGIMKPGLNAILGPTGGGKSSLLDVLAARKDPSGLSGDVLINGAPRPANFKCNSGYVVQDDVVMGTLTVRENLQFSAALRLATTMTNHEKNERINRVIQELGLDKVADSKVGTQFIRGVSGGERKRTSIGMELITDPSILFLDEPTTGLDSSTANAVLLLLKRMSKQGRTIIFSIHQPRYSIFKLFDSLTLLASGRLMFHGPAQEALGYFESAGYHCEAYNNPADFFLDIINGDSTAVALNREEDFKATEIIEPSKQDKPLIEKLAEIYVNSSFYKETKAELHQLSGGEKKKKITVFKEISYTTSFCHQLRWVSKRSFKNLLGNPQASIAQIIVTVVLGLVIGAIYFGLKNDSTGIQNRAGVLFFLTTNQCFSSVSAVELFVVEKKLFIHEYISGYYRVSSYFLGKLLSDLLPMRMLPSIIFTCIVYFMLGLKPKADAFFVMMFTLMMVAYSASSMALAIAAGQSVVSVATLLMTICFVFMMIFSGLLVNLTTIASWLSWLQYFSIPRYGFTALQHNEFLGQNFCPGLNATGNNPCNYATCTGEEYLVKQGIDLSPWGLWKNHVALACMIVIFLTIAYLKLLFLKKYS
- assay_details: bidirectional transport assay across hCMEC/D3 cell monolayer with or without Ko143
- test_parameters: human, pH 7.4, with Ko143 1 μM, Efflux ratio (ER), hCMEC/D3 with inhibitor Ko143, 42 μM; hCMEC/D3 monolayer; 1 μM Ko143
reported_property: efflux ratio at 2 h, 42 μM

> print(dat)
                                   compound  reported.result
1  NC(=O)N1c2ccccc2C=Cc2ccccc21 [CBZ, carbamazepine]             1.12

###

- test_system: BCRP (Homo sapiens, UniProt Q9UNQ0)
- Sequence (Q9UNQ0 1-655): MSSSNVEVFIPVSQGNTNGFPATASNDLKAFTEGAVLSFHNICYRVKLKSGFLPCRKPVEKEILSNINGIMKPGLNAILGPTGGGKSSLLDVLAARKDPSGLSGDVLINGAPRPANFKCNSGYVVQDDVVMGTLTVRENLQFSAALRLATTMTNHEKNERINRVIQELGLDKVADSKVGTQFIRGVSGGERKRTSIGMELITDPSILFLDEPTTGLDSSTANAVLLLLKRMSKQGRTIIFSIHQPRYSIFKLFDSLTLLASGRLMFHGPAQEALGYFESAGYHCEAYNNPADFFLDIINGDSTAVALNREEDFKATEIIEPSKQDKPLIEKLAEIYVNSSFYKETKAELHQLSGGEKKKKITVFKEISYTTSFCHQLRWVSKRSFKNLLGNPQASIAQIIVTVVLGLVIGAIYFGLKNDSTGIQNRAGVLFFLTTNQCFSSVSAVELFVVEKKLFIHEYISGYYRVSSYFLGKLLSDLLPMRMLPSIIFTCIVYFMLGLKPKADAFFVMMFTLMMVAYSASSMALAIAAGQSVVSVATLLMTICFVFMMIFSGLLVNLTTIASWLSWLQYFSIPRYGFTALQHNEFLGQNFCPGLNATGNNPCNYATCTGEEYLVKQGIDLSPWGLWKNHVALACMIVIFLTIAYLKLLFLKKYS
- assay_details: bidirectional transport assay across hCMEC/D3 cell monolayer with or without Ko143
- test_parameters: human, pH 7.4, with Ko143 1 μM
reported_property: Papp A→B at 2 h, 5 μM (×10⁻⁶ cm/s)

> print(dat)
                  compound.structure.string      reported.property  units.of.measure  reported.result
1  O=C1c2c(O)ccc(O)c2C(=O)c2c(NCCNCCO)ccc(NCCNCCO)c21  Papp A→B at 2 h, 5 μM        ×10⁻⁶ cm/s             10.2
